- Tested on: CAKI-1 renal
- ASSAY REMARKS: NCI tumour cell line growth inhibition, 48 h
PARAMETER MEASURED: TGI

Some compounds with known TGI results, for comparison:
{"COMPOUND": "Oc1cccnc1/C=N/OCc1ccccc1", "PARAMETER MEASURED": "TGI", "MEAS VALUE": "> 100 µM"}
{"COMPOUND": "O=C(c1ccco1)c1c(C(F)(F)F)n([O-])c2cc(F)c(F)cc2[n+]1=O", "PARAMETER MEASURED": "TGI", "MEAS VALUE": "1.37 µM"}
{"COMPOUND": "COc1c(CC=C(C)C)c(O)c(C(CC(C)C)c2c(O)c(CC=C(C)C)c(O)c(C(C)=O)c2O)c(O)c1C(C)=O (stereo not drawn)", "PARAMETER MEASURED": "TGI", "MEAS VALUE": "11.7 µM"}
{"COMPOUND": "C[C@H]1C[C@H]2[C@@H]3CCC4=CC(=O)C=C[C@]4(C)C3=CC[C@]2(C)[C@@]1(O)C(=O)CO", "PARAMETER MEASURED": "TGI", "MEAS VALUE": "> 100 µM"}
{"COMPOUND": "COc1cc2c(cc1NC(=O)C(Cl)Cl)-c1ccc(NC(=O)C(Cl)Cl)cc1C2", "PARAMETER MEASURED": "TGI", "MEAS VALUE": "4.04 µM"}
{"COMPOUND": "COc1cc(/C=C/C(=O)O[C@H]2[C@H](O[C@@H]3O[C@@H](C)[C@H](O)[C@@H](O)[C@H]3O)[C@@H](O)[C@H](OCCc3ccc(O)c(O)c3)O[C@@H]2COC2OCC(O)(CO)C2O)ccc1O (stereo partly drawn)", "PARAMETER MEASURED": "TGI", "MEAS VALUE": "> 100 µM"}
{"COMPOUND": "C#CCNC(=O)NC(CCCCNC(=O)OCc1ccccc1)C(=O)OCc1ccccc1 (stereo not drawn)", "PARAMETER MEASURED": "TGI", "MEAS VALUE": "> 100 µM"}

Record request: TGI value, item `CC(=O)O[C@@H]1[C@H]2[C@@H](OC(=O)c3ccccc3)[C@@H](C)C[C@]2(O)[C@H](OC(C)=O)[C@@]2(C)[C@@H]3C[C@@](C)(OC(C)=O)C[C@@H](OC(C)=O)[C@@]3(OC(C)=O)C[C@@]12C`
> 10 µM

* * *

- System: HOP-62 NSCLC
- ASSAY REMARKS: NCI tumour cell line growth inhibition, 48 h
Field: TGI. Provide a value for each of the compounds that follow.

Some compounds with known TGI results, for comparison:
{"COMPOUND": "Cc1cccc(CNc2ncnc3[nH]ncc23)c1", "TGI": "> 100 µM"}
{"COMPOUND": "Nc1nc2c(ncn2CCCC(c2ccccc2)P(=O)(O)O)c(=O)[nH]1 (stereo unspecified)", "TGI": "> 100 µM"}
{"COMPOUND": "C#CCNC(=O)NC(CCCCNC(=O)OCc1ccccc1)C(=O)OCc1ccccc1 (stereo unspecified)", "TGI": "> 100 µM"}
{"COMPOUND": "C/C(N)=N/OCc1nc(C)no1", "TGI": "> 100 µM"}
{"COMPOUND": "COc1ccc(COc2cc3oc(=O)c4cc(C(C)O)ccc4c3cc2OC)cc1 (stereo unspecified)", "TGI": "29.4 µM"}
{"COMPOUND": "COCCOCCOCCOCCOC(=O)OC[n+]1ccc(NC(=NCCCCCCOc2ccc(Cl)cc2)NC#N)cc1", "TGI": "24.1 µM"}
{"COMPOUND": "O=C(CC(=O)c1ccccc1)C(=O)Nc1ccc(Cl)cc1", "TGI": "> 100 µM"}
{"COMPOUND": "O=C(Cc1ccccc1)C(c1ccccc1)S(=O)(=O)c1ccccc1 (stereo unspecified)", "TGI": "> 100 µM"}
{"COMPOUND": "CCCCCCCCCCCCC(O)C(=O)O (stereo unspecified)", "TGI": "> 100 µM"}
{"COMPOUND": "O=C1/C(=C/c2cccs2)NC(=S)N1CN1CCCCC1", "TGI": "> 100 µM"}

Record request: TGI value, item `COc1cc(-c2ncn(/C=C\c3nnco3)n2)cc(C(F)(F)F)c1`
> 47 µM

* * *

Field: TGI. Provide a value for each of the compounds that follow.
- Tested on: K-562 leukemia
- ASSAY REMARKS: NCI tumour cell line growth inhibition, 48 h

Give TGI for each listed item.
1. O=C(CC(=O)c1ccccc1)C(=O)Nc1ccc(Cl)cc1
2. CCOC(=O)C(Cc1ccc(N(CCCl)CCCl)cc1)NC(=O)C(Cc1ccccc1)NC(C)=O (centres undefined)
3. Cn1c(C(=O)c2cccc3ccccc23)nc2ccccc21
4. O=C1C(Sc2ccc3ccccc3c2)=C(Sc2ccc3ccccc3c2)C(=O)c2ccccc21

1. > 100 µM
2. > 0.502 µM
3. > 100 µM
4. 19 µM

Give TGI for each listed item.
1. COc1ccc(NC/C=C/C(=C/COC(C)=O)OC(C)=O)cc1
2. COc1ccc(C2CC(c3ccc(N(C)C)cc3)=NN2c2ccc(S(N)(=O)=O)cc2)cc1 (centres undefined)
3. COC(=O)[C@@]1(NC(=O)C(CC(=O)OC(C)(C)C)NC(=O)OC(C)(C)C)C[C@H]1C (some centres undefined)
4. CCC(C)N1CN(c2ccccc2)C2(CCN(CCCSc3ccc(F)cc3)CC2)C1=O (centres undefined)
5. CSc1ccc2c(cc1=O)C(NC(=O)c1ccc(C#N)cc1)CCc1cc(O)c(O)c(O)c1-2 (centres undefined)
6. OC1COC(OCc2ccccc2)C(O)C1O (centres undefined)

3.62 µM
> 100 µM
> 100 µM
6.26 µM
25.1 µM
> 100 µM

Give TGI for each listed item.
1. CCn1ccnc1C(=O)/C=C/c1ccc(CC(=O)Nc2ccc(F)cc2)cc1
2. C=C1C=CC2(Br)OC3CC(C)(Cl)C(Br)CC13C2(C)C (centres undefined)
3. NC(=O)CC(N)c1nn[nH]n1 (centres undefined)
4. COc1ccc(C(=O)Oc2c(C#N)sc3c2c(=O)n(-c2ccccc2)c(=S)n3-c2ccccc2)cc1

1: > 16.7 µM; 2: 36.8 µM; 3: > 100 µM; 4: > 100 µM

* * *

- System: CCRF-CEM leukemia
- ASSAY REMARKS: NCI tumour cell line growth inhibition, 48 h; in the data active = GI50 below about 0.43 µM; inactive = the rest
Mark one answer only. Choices: active, inactive

{"MOLECULE": "COc1cc(-c2ncn(/C=C\\c3nnco3)n2)cc(C(F)(F)F)c1", "TARGET OR SYSTEM": "CCRF-CEM leukemia", "GROUP": "active"}
{"MOLECULE": "CC1(C)[C@H](O)[C@H](F)C[C@@]2(C)Oc3ccc(C(=O)Nc4ccc5c(c4)NC(=O)C54CCN(CCCCC#N)CC4)cc3C[C@H]12", "TARGET OR SYSTEM": "CCRF-CEM leukemia", "GROUP": "active"}
{"MOLECULE": "O=C(c1cc(Cc2n[nH]c(=O)c3ccccc23)ccc1F)N1CCN(C(=O)C2CC2)CC1", "TARGET OR SYSTEM": "CCRF-CEM leukemia", "GROUP": "inactive"}
{"MOLECULE": "CC1CCC2C(CN(CC3=C(C(F)(F)F)OC4OC5(C)CCC6C(C)CCC3C46OO5)CC3=C(C(F)(F)F)OC4OC5(C)CCC6C(C)CCC3C46OO5)=C(C(F)(F)F)OC3OC4(C)CCC1C32OO4 (configuration not stated)", "TARGET OR SYSTEM": "CCRF-CEM leukemia", "GROUP": "inactive"}
{"MOLECULE": "COc1ccc(C2CC(c3ccc(N(C)C)cc3)=NN2c2ccc(S(N)(=O)=O)cc2)cc1 (configuration not stated)", "TARGET OR SYSTEM": "CCRF-CEM leukemia", "GROUP": "inactive"}

Consider the additional molecule presented here.
# fetch the recorded call for `Cc1ccc(-n2c(-c3cc4c([nH]c5ccccc54)c(-c4cccc(O)c4)n3)n[nH]c2=S)cc1` here
inactive

* * *

- Test system: NCI-H522 lung
- ASSAY REMARKS: NCI tumour cell line growth inhibition, 48 h
PARAMETER MEASURED: TGI

Some compounds with known TGI results, for comparison:
{"COMPOUND": "C=C(C)CCC1CC=[N+]([O-])OC1C(C)(C)C (stereo not drawn)", "TGI": "58.5 µM"}
{"COMPOUND": "O=[N+]([O-])/C=C/c1ccc(Cl)cc1Cl", "TGI": "29.8 µM"}
{"COMPOUND": "C/C(N=NS(=O)(=O)c1ccc(C)cc1)=C1\\C=CC=CN1O", "TGI": "> 100 µM"}

Give TGI for each listed item.
1. Cc1ccc(NC(=O)/C(C#N)=C/c2ccccc2)c(C)c1
2. COC(=O)c1ccc(C=C(C#N)C#N)cc1
3. c1ccc(CN2COc3c(ccc4c5c(ccc34)CN(Cc3ccccc3)CO5)C2)cc1
4. O=[N+]([O-])/C=C/c1cn(CCCCCCCCCCCCn2cc(/C=C/[N+](=O)[O-])c3ccccc32)c2ccccc12

1. > 100 µM
2. 30.1 µM
3. > 100 µM
4. > 100 µM

Record request: TGI value, item `N#Cc1cc2c(cc1Cl)Sc1nnc(Nc3cccc4ccccc34)n1S2(=O)=O`
> 100 µM

Hello, the source for this data is PubChem BioAssay (NCI), in case you need it.
